Entry source: patent US9034439B2

I'd appreciate it if you could supply solubility values for the items below.
experiment: Solubility in organic solvents; type: physicochemical; details: organic solvent or mixture; dichloromethane (DCM) and tetrahydrofuran (THF); read-out: solubility

Using known records, supply solubility for O=C1[C@@H]2c3ccccc3[C@@H]1c1cc3cc4ccccc4cc3cc12
~700 µg/mL

Tell me its solubility given O=C1[C@H]2c3cc4ccccc4cc3[C@H]1c1cc3ccccc3cc12 [Compound 1, reference compound] as the entry.
~700 µg/mL
